# system.under.test: human PTHR1 (RG conformation) (Homo sapiens, UniProt Q03431)
# Construct: expressed in transfected cells; host or cells: COS-7 cells (transient co-transfection; membranes)
# Sequence (Q03431 27-593): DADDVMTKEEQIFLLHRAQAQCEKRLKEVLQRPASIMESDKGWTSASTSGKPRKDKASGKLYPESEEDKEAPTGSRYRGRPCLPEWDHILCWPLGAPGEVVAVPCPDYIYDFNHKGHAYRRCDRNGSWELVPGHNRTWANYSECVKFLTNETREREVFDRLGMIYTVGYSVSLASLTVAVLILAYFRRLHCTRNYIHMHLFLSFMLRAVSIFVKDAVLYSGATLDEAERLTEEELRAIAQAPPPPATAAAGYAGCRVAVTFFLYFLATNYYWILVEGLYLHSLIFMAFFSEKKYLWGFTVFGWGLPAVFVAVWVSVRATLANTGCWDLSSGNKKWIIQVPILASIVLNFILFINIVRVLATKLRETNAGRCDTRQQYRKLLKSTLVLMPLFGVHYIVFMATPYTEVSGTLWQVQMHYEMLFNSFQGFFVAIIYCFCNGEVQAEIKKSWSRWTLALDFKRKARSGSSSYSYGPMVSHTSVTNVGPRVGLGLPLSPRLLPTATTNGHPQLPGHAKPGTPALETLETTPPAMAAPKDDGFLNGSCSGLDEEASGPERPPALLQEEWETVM
# assay.details: Competition binding to the RG conformation of PTHR1
pIC50: −log10 of the molar value. Where no end group is shown, it is not given here.
property.measured: pIC50

INSERT INTO results (biosequence, value_reported) VALUES
  ('AVAEIQLMHQRAKWLNSLRRRFFLHHLIAEIHTAEI [M‐PTH(1‐17)/PTHrP(18‐36)]', 9.64),
  ('AVAEIQLMHQRAKWLNSMERVEWLRKKLQDIHTAEI [M‐PTH(1‐30)/PTHrP(31‐36)]', 9.68),
  ('AVAEIQLMHQRGKSIQDLRRRFFLHHLIAEIHTAEI [M‐PTH(1‐11)/PTHrP(12‐36)]', 9.26),
  ('AVAEIQLMHQRAKWIQDLRRRFFLHHLIAEIHTAEI [M‐PTH(1‐14)/PTHrP(15‐36)]', 9.17),
  ('AVAEIQLMHQRAKWLNSMRRRFFLHHLIAEIHTAEI [M‐PTH(1‐18)/PTHrP(19‐36)]', 9.89);
